# System: MKN45 (Gastric Carcinoma);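 also: after 72 h of two-drug dosing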
# assay method text: Bliss excess, mean over the matrix (fraction); higher = more synergy

>  <molecule>
COc1cc2ncnc(Nc3ccc(F)c(Cl)c3)c2cc1OCCCN1CCOCC1 [Gefitinib] + CC(C)n1c(=O)n(C)c2cnc3cc(F)c(-c4ccc(OCCCN5CCCCC5)nc4)cc3c21 [AZD1390] (first compound max 10 µM, 7x7, partner max 0.3 µM)

>  <Bliss excess>
-0.046

$$$$
>  <molecule>
N#Cc1cnc(Nc2cc(NC[C@H]3CNCCO3)c(C(F)(F)F)cn2)cn1 [SRA737] + C=CCn1c(=O)c2cnc(Nc3ccc(N4CCN(C)CC4)cc3)nc2n1-c1cccc(C(C)(C)O)n1 [AZD1775] (first compound max 10 µM, partner max 1 µM)

>  <Bliss excess>
-0.0475

$$$$
>  <molecule>
CCN(CCO)CCCOc1ccc2c(Nc3cc(CC(=O)Nc4cccc(F)c4)[nH]n3)ncnc2c1 [AZD2811] + O=C(c1cc(Cc2n[nH]c(=O)c3ccccc23)ccc1F)N1CCN(C(=O)C2CC2)CC1 [Olaparib] (first compound max 1 µM, 7x7, partner max 10 µM)

>  <Bliss excess>
-0.0434

$$$$
>  <molecule>
CC(=O)c1c(C)c2cnc(Nc3ccc(N4CCNCC4)cn3)nc2n(C2CCCC2)c1=O [Palbociclib] + Cn1cnc2c(F)c(Nc3ccc(Br)cc3Cl)c(C(=O)NOCCO)cc21 [Selumetinib] (first compound max 10 µM, 7x7, partner max 10 µM)

>  <Bliss excess>
-0.0092

$$$$
>  <molecule>
COc1cccc(OCCCN)c1-c1cc(Nc2cnc(C#N)cn2)n[nH]1 [Prexasertib] + CCc1c2c(nc3ccc(O)cc13)-c1cc3c(c(=O)n1C2)COC(=O)[C@]3(O)CC [SN-38] (first compound max 1 µM, 7x7, partner max 0.3 µM)

>  <Bliss excess>
-0.0493

$$$$
>  <molecule>
COc1cccc(OCCCN)c1-c1cc(Nc2cnc(C#N)cn2)n[nH]1 [Prexasertib] + C=CCn1c(=O)c2cnc(Nc3ccc(N4CCN(C)CC4)cc3)nc2n1-c1cccc(C(C)(C)O)n1 [AZD1775] (first compound max 1 µM, partner max 1 µM)

>  <Bliss excess>
-0.0561

$$$$
>  <molecule>
O=C(c1cc(Cc2n[nH]c(=O)c3ccccc23)ccc1F)N1CCN(C(=O)C2CC2)CC1 [Olaparib] + CC1(C)CCC(CN2CCN(c3ccc(C(=O)NS(=O)(=O)c4ccc(NCC5CCOCC5)c([N+](=O)[O-])c4)c(Oc4cnc5[nH]ccc5c4)c3)CC2)=C(c2ccc(Cl)cc2)C1 [Venetoclax] (first compound max 10 µM, 7x7, partner max 1 µM)

>  <Bliss excess>
-0.0424

$$$$
>  <molecule>
Cc1c2c(nn1C)CSCc1cc(n(C)n1)CSc1cc(c3ccccc3c1)OCCCc1c(C(=O)O)n(C)c3c-2c(Cl)ccc13 [AZD5991] + CC(=O)O[C@H]1C(=O)[C@@]2(C)[C@H]([C@H](OC(=O)c3ccccc3)[C@]3(O)C[C@H](OC(=O)[C@H](O)[C@@H](NC(=O)c4ccccc4)c4ccccc4)C(C)=C1C3(C)C)[C@]1(OC(C)=O)CO[C@@H]1C[C@@H]2O [Paclitaxel] (first compound max 1 µM, 7x7, partner max 3 µM)

>  <Bliss excess>
-0.0238

$$$$
>  <molecule>
CCN(CCO)CCCOc1ccc2c(Nc3cc(CC(=O)Nc4cccc(F)c4)[nH]n3)ncnc2c1 [AZD2811] + C=CCn1c(=O)c2cnc(Nc3ccc(N4CCN(C)CC4)cc3)nc2n1-c1cccc(C(C)(C)O)n1 [AZD1775] (first compound max 1 µM, partner max 1 µM)

>  <Bliss excess>
-0.0302

$$$$
>  <molecule>
CCN(CCO)CCCOc1ccc2c(Nc3cc(CC(=O)Nc4cccc(F)c4)[nH]n3)ncnc2c1 [AZD2811] + C[C@@H]1COCCN1C2=NC(=NC(=C2)C3(CC3)[S@](=N)(=O)C)C4=C5C=CNC5=NC=C4 [AZD6738] (first compound max 1 µM, 7x7, partner max 10 µM)

>  <Bliss excess>
-0.0439

$$$$
>  <molecule>
COc1nnc2ccc(N3CCC(c4ccc(OCCN5CCN(C)C(=O)[C@H]5C)cc4)CC3)nn12 [AZD5153] + Cn1cnc2c(F)c(Nc3ccc(Br)cc3Cl)c(C(=O)NOCCO)cc21 [Selumetinib] (first compound max 1 µM, 7x7, partner max 10 µM)

>  <Bliss excess>
-0.0237

$$$$
>  <molecule>
Cn1cnc2c(F)c(Nc3ccc(Br)cc3Cl)c(C(=O)NOCCO)cc21 [Selumetinib] + C[C@@H]1COCCN1C2=NC(=NC(=C2)C3(CC3)[S@](=N)(=O)C)C4=C5C=CNC5=NC=C4 [AZD6738] (first compound max 10 µM, 7x7, partner max 10 µM)

>  <Bliss excess>
-0.0731

$$$$
>  <molecule>
CN(CCO)CC[C@H](CSc1ccccc1)Nc1ccc(S(=O)(=O)NC(=O)c2ccc(N3CCC([C@@H](O)c4ccccc4-c4ccc(Cl)cc4)CC3)cc2)cc1S(=O)(=O)C(F)(F)F [AZD4320] + CN(C)CCCOc1ccc(-c2ccc3ncc4c(c3c2)n(C2CCOCC2)c(=O)n4C)cn1 [AZD0156] (first compound max 1 µM, 7x7, partner max 1 µM)

>  <Bliss excess>
-0.0612

$$$$

These measurements were taken from the supplement of paper PMC11061612.
